- Test method notes: Adsorption and release of various antibiotics on ultra-stable zeolite Y (USY)
- Assay type: physicochemical
- Condition parameters: dried USY suspended to 20 mg/ml in buffer
Rule: Release concentration of antibiotic of 200 µg/mL or more gives true (1); anything lower gives false (0).

INSERT INTO results (molecule, category) VALUES
  ('CN(C)[C@@H]1C(=O)C(C(N)=O)=C(O)[C@@]2(O)C(=O)C3=C(O)c4c(O)cccc4[C@@](C)(O)[C@H]3C[C@@H]12 [Tetracyclin]', 'true (1)'),
  ('[H]/N=C(/N)N[C@H]1[C@H](O)[C@@H](O)[C@H](O[C@@H]2O[C@@H](C)[C@](O)(C=O)[C@H]2O[C@@H]2O[C@@H](CO)[C@H](O)[C@@H](O)[C@@H]2NC)[C@@H](N/C(N)=N\[H])[C@@H]1O [Streptomycin]', 'true (1)'),
  ('O=C(N[C@H](CO)[C@H](O)c1ccc([N+](=O)[O-])cc1)C(Cl)Cl [Chloramphemicol]', 'false (0)'),
  ('CC(=O)OCC1=C(C(=O)O)N2C(=O)[C@@H](NC(=O)Cc3cccs3)[C@H]2SC1 [Cephalothin]', 'false (0)');

Turning to the following molecule.
Qu. API: above_or_equal(metric=Release concentration of antibiotic, cutoff=200 µg/mL) for item CC1(C)S[C@@H]2[C@H](NC(=O)[C@H](N)c3ccccc3)C(=O)N2[C@H]1C(=O)O [Ampicilin]
Ans. true (1)
